TARGET UNDER TEST: T1, human B1R C-terminally tagged with FLAG (hB1R-FLAG) (human, UniProt P46663 1-353)
T1 construct: also called human B1R-FLAG; bradykinin B1 receptor; not shown: FLAG, C-terminal, kept
T1 sequence (looked up): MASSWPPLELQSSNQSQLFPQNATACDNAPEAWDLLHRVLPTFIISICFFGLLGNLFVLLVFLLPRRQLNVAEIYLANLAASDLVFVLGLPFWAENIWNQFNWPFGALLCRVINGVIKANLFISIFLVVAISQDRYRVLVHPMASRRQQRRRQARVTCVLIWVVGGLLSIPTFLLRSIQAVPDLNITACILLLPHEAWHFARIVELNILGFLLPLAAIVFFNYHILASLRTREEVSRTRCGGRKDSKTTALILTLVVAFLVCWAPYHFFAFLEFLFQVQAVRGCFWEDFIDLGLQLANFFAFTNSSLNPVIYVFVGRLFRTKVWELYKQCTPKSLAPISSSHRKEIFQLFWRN
ASSAY TEXT: radioligand binding; competition of dilutions of a producer-cell lysate of known EGFP-S4-P1 concentration (GFP ELISA) with 1 nM [^3H]Lys-des-Arg^9-BK (bought radioligand) on intact HEK 293a cells expressing hB1R-FLAG; Ki by the Cheng-Prusoff correction
CONDITION DETAILS: partners not purified
ENDPOINT: pKi
# pKi is unitless: minus log10 of the molar concentration; print number only

response.value for NGNGNGNGNGNGNGNGNGNGNGNGNGNGNGKRPPGFSPF (ligand, also called EGFP-(Asn-Gly)15-Lys-des-Arg^9-BK) [EGFP-S4-P1 (EGFP-(NG)15-Lys-des-Arg^9-BK)] (field: pKi) = 8.18
